Hey, just so you know, these numbers are from ChEMBL document CHEMBL4513216.

- Tested on: Plasmodium berghei
- PROTOCOL: Screen against P. berghei liver stage (PbLuc), transformed with Luciferase, at 10uM
- Type: functional, HepG2
- CONDITION DETAILS: tested at 10 uM
The campaign covered roughly 69,000 compounds. About 8,600 (12%) showed an effect of 50% or more. Many of the other results were omitted from the sample, so strong results are more common in it than they were.
INHIBITION reference
MEASURED QUANTITY: INHIBITION (%)

1) CC(C)c1cc(CN2CCC(CC(=O)O)CC2)no1 :: 53
2) CS(=O)(=O)N1CCCC(Cc2cnc(Br)cn2)C1 (configuration not stated) :: 26.7
3) CC(C)c1cc(COCCCC(=O)O)no1 :: 38.2
4) COCCN1CCCc2sc(C(=O)NCC3CCCO3)nc21 (configuration not stated) :: -50.8
5) CCOCCc1nc(Cc2ccccc2)n[nH]1 :: 10.3
6) Cn1cc(C(=O)N2CCCC(Cc3cnccn3)C2)cn1 (configuration not stated) :: -12.2
7) CC(C)c1cc(CN2CCC(N)CC2)no1 :: 76.8
8) CN(C)c1nc2c(c(N(C)C)n1)CCN(C(=O)CN1C[C@H]3CC[C@@H]1C3)C2 :: 11.7
9) CCN(CC)CCC(=O)N1CCc2c(nc(N(C)C)nc2N(C)C)C1 :: 30.1
10) CCS(=O)(=O)N1CCCC(Cc2cnccn2)C1 (configuration not stated) :: 56
11) Cc1ccc(CN2CC[C@@H](O)[C@@H]2Cc2cnn(C)c2)o1 :: 22.9
12) CC(=O)N1CCc2c(nc(N(C)C)nc2N(C)CC2CCCO2)C1 (configuration not stated) :: 41.4

###

- Tested on: Plasmodium berghei
- PROTOCOL: Screen against P. berghei liver stage (PbLuc), transformed with Luciferase, at 10uM
- Assay type: functional, HepG2
- CONDITION DETAILS: tested at 10 uM
Out of some 69,000 compounds screened, about 8,600 (12%) showed an effect of 50% or more. The list comes from a sample in which strong results are over-represented; it also holds close analogues and randomly drawn compounds.
// map INHIBITION onto a label; ranges Low (below 20%), Mid (20% to below 40%), High (40% or more)

1. Cc1n[nH]c(C)c1CCC(=O)NCC1(O)CCN(c2ccccn2)C1 (stereo not drawn) :: Low
2. O=c1[nH]c2csnc2c(=O)n1Cc1ccc(Br)cc1 :: Mid
3. O=c1[nH]nc2c(S(=O)(=O)N3CCCC3)cccn12 :: Low
4. O=c1[nH]nc2c(S(=O)(=O)N3CCCCC3)cccn12 :: High
5. Cc1cc(OCC(=O)NS(=O)(=O)c2cccnc2)ccc1Cl :: Mid
6. CC(=O)Nc1ccc2nc(CN(C)Cc3snnc3C)ccc2c1 :: Low
7. O=C(NCc1cccs1)[C@H]1CC[C@@H]2[C@@H](CCN2C2CCC2)O1 :: Low
8. O=C(c1cc(C2CC2)on1)N1C[C@@H]2COC[C@]2(COc2cccnc2)C1 :: High
9. COc1cc(O)ccc1CN1CCN(C2CCc3ccccc3C2)CC1 (stereo not drawn) :: Mid
10. O=C1CC(NS(=O)(=O)NCc2ccccc2)CN1c1ccccc1Cl (stereo not drawn) :: High
11. Cc1ccccc1N1CCCN(C(=O)CN2C(=O)OC[C@@H]2C(C)C)CC1 :: Mid
12. CCN(Cc1nc(COC)no1)Cc1cc2ccc(F)cc2[nH]c1=O :: Low
13. Cc1c[nH]nc1C1CCN(C(=O)CC2CCCC2)C1 (stereo not drawn) :: Low
14. Oc1cccc(CN2CCN(C3CCc4ccccc4C3)CC2)c1 (stereo not drawn) :: High
15. CS(=O)(=O)NC1CC(=O)N(c2ccccc2Cl)C1 (stereo not drawn) :: Mid
16. Cc1cccc2nc(C(=O)N3CCC4(CCC(=O)N(C)C4)CC3)c(F)n12 :: Mid
17. CCCn1nnnc1COc1cc(OC)ccc1C(=O)OC :: Low
18. CCc1nc(C2CCCN2CC(=O)Nc2cc(C)no2)no1 (stereo not drawn) :: Low
19. CN(C)c1ccc(-c2cc(=O)n3c(n2)CCCCC3)cc1 :: Mid
20. Cc1cc(=O)[nH]c(SCC(=O)N(C)CC2Cc3ccccc3CN2C)n1 (stereo not drawn) :: High

###

- Test system: Plasmodium berghei
- PROTOCOL: Screen against P. berghei liver stage (PbLuc), transformed with Luciferase, at 10uM
- Type: functional, HepG2
- CONDITION DETAILS: tested at 10 uM
The campaign covered roughly 69,000 compounds. About 8,600 (12%) showed an effect of 50% or more. The entries come from a sample that favours strong results as a whole.
In this section we review reported INHIBITION values for a set of compounds.
MEASURED QUANTITY: INHIBITION (%)

1. CC(Cn1cccn1)NC(=O)N(C)Cc1cnn(C)c1 (centres undefined) :: 22.6
2. Cc1nn2cccnc2c1C(=O)N1CCCC(n2ccnc2C)C1 (centres undefined) :: 2.3
3. CC(C)CC1SCC(=O)Nc2c1cnn2-c1ccccc1F (centres undefined) :: 13
4. CCn1cc(CN2CCCN(C(=O)CCc3ccncc3)CC2)cn1 :: 31
5. COCCC(=O)N1CCC(c2cc3ncc(C)nc3[nH]2)CC1 :: 15.9
6. CCN1CCN(c2ncc(-c3cc(C)no3)c(-c3ccc(C)s3)n2)CC1 :: 57.4
7. CN(Cc1ccncc1)C1CCC[C@@H]2CN(c3ncccn3)C[C@H]12 (some centres undefined) :: -22.7
8. O=C(CCc1ccccc1)N1CCCCC1C1OCCO1 (centres undefined) :: 72.1
9. Cc1nc(C)n(CC2CCCN(CCCc3ccccc3)C2)n1 (centres undefined) :: 44.3
10. CCC(CN1CCCC1)n1cncc1-c1cnn(-c2ccc(F)cc2)c1 (centres undefined) :: 43.55
11. CN(CCNc1cc(N2CCCC2CO)ncn1)Cc1ccccc1 (centres undefined) :: -21.2
12. COc1c(C2CCCN2CC(=O)Nc2cc(C)nn2C)c(C)nn1C (centres undefined) :: 23.5
13. Cc1nc(C2CCCN(C(C)C)C2)sc1Br (centres undefined) :: 11.8
14. CN(Cc1ccncc1)C1CC2(CCN(c3ncc(F)cn3)CC2)C1 :: 55.5
15. O=C1COc2cc(S(=O)(=O)NCCC3=CCCCC3)c(Cl)cc2N1 :: 48.4
16. CCN(CC)C(=O)N1CCN(CCc2ccncc2)CC1 :: 15.5
17. O=C(NCCc1ccccc1)N1CCCCC1C1OCCO1 (centres undefined) :: 25.7
18. CCN1CCN(c2ncc(-c3cc(C)no3)c(-c3ccoc3C)n2)CC1 :: 48.9
19. CCOc1ccc(CN2CCC(c3ccn[nH]3)C2)cc1CO (centres undefined) :: 43.85
20. COCC(=O)N1CCC(c2cc(-c3ccc(C)cc3)n[nH]2)C1 (centres undefined) :: -16.9
21. Cc1cc(-c2cnc(N3CCN(C)CC3)nc2-c2ccc(C)s2)on1 :: 69.4
22. Cn1cc(CCC(=O)N2CCN(Cc3ccncc3)CC2)cn1 :: 27.1
23. Cc1cc(-c2cnc(N3CCOCC3)nc2-c2ccc(C)s2)on1 :: 53
24. CN(Cc1cccnc1)C1CC2(CCN(c3ncccn3)CC2)C1 :: -20.8

###

- System: Plasmodium berghei
- PROTOCOL: Screen against P. berghei liver stage (PbLuc), transformed with Luciferase, at 10uM
- Assay type: functional, HepG2
- CONDITION DETAILS: tested at 10 uM
The campaign covered roughly 69,000 compounds. About 8,600 (12%) showed an effect of 50% or more. The full list was thinned out, with strong results kept by preference.
// NB: equality with 30% counts as class 0; only INHIBITION strictly below is class 1

1. Cc1ccc(OCCN(C)Cc2nccn2C)c(C)c1 :: class 0
2. Cc1noc(C2CCCN(C(=O)c3cc(Cl)ccc3F)C2)n1 (configuration not stated) :: class 1
3. CC(C)NC(=O)N1CCc2onc(C(=O)NCCN(C)C)c2C1 :: class 0
4. CC(C)N(CC(=O)Nc1ccc(Br)cc1Cl)Cc1cccnc1 :: class 0
5. CN1CC(=O)N(c2cccc(F)c2)CC12CCN(Cc1ccsc1)C2 (configuration not stated) :: class 1
6. Cc1noc(C2CCCN(C(=O)c3cc(Cl)cn3C)C2)n1 (configuration not stated) :: class 0
7. CC(C)(NS(C)(=O)=O)c1nc(-c2ccc(F)c(F)c2)no1 :: class 1
8. CCN(CC)S(=O)(=O)NC1CCN(c2ccc(OC)cc2)CC1 :: class 1
9. CC(=O)N1CCCC1c1ccc(-c2c(C)noc2C)cn1 (configuration not stated) :: class 1
10. CN(Cc1cc2c(cc1OC(F)F)OCO2)Cc1nccn1C :: class 0
11. CN(C)CCNC(=O)c1noc2c1CN(C(=O)N(C)C)CC2 :: class 1
12. Cc1ccc(CN2CCc3onc(C(=O)NCCN(C)C)c3C2)o1 :: class 0
13. c1cnc(NC2COC3(CCN(Cc4nccs4)CC3)C2)cn1 (configuration not stated) :: class 0
14. CC(C)N(CC(=O)O)Cc1cccc(Br)c1 :: class 1
15. CC(C)CN1CCO[C@H]2CCN(c3cnccn3)CC[C@@H]21 :: class 1
16. COc1cc(CNC(=O)COC2CCCCC2)ccc1O :: class 1
17. O=c1c(Cc2ccccc2)c(O)ccn1CCc1ccccc1 :: class 0
18. Cc1noc(C)c1-c1ccc(C2CCCN2C(=O)Cn2ccnc2)nc1 (configuration not stated) :: class 0
19. COc1ccc(-c2nc(C#N)c(N(C)C)o2)cc1S(=O)(=O)N1CCCC1 :: class 1
20. CC(C)C(=O)N1CCc2onc(C(=O)NCCN(C)C)c2C1 :: class 0
21. Cn1cc(-c2nnn3c2COC(CNCc2ccccn2)C3)cn1 (configuration not stated) :: class 0
22. Cc1noc(C)c1-c1ccc(C2CCCN2C(=O)c2cnn(C)c2)nc1 (configuration not stated) :: class 1
23. CN(C)C(=O)CN1CCCC(Cc2ccc(N3CCCC3)nn2)C1 (configuration not stated) :: class 0
24. CCC(O)CN(Cc1cccc(C(=O)N(C)C)c1)c1ccccc1 (configuration not stated) :: class 1
25. c1cc(-c2cn[nH]c2)ccc1CN1CCNCC1 :: class 1
26. CO[C@@H]1CO[C@@]2(CCCN(C(=O)C3CC=CC3)C2)C1 :: class 0
27. Cc1nc(N2CCC(C)CC2)ncc1-c1cc(O)nc(N2CCCC2)n1 :: class 0
28. Cc1ccc(CN2CCc3onc(C(=O)N4CCCC4)c3C2)o1 :: class 1
29. Cc1nc(N2CCCC2)ncc1-c1cc(O)nc(N2CCCC2)n1 :: class 1
30. Cc1noc(C)c1-c1ccc(C2CCCN2C(=O)c2cccnc2)nc1 (configuration not stated) :: class 1
31. O=c1c(Cc2ccccc2)c(O)ccn1Cc1ccco1 :: class 0
32. O=c1c(Cc2ccccc2)c(O)ccn1Cc1cccs1 :: class 1
33. CC(O)CN(Cc1cccc(C(=O)N(C)C)c1)c1ccccc1 (configuration not stated) :: class 0
34. Cc1ccc(CN2CCc3onc(C(=O)NC(C)C)c3C2)o1 :: class 0
35. c1ccc(-c2nnn3c2COC(CNCc2ccccn2)C3)cc1 (configuration not stated) :: class 0
36. Cc1nc(N2CCCC2)ncc1-c1cc(O)nc(N2CCN(C)CC2)n1 :: class 1
37. Cc1nn(C)cc1CN1CCc2nc(-c3cccnc3)nc(O)c2C1 :: class 0
38. Cc1noc(C)c1-c1ccc(C2CCCN2C(=O)c2cccnn2)nc1 (configuration not stated) :: class 0
39. CC(O)CN(Cc1cccc(C(N)=O)c1)c1ccccc1 (configuration not stated) :: class 1
40. CC(C)S(=O)(=O)N1CCC(c2cc3n(n2)[C@@H](C(F)(F)F)C[C@@H](C)N3)C1 (some centres not stated) :: class 1
41. CC(C)CC(=O)N1CC[C@H]2N(C)CC[C@@]2(C(=O)Nc2cccnc2)CC1 :: class 1
42. CCN(CC)c1ncccc1CNCc1ccc(-c2ccn[nH]2)s1 :: class 1
43. CN(C)C(=O)CN1CCN(C(=O)c2cnn(-c3ccccc3Cl)c2)CC1 :: class 1
44. CN(CCCOc1ccccc1)Cc1nccn1C :: class 1
45. Cc1c(Cl)cccc1NC(=O)CN(Cc1cccnc1)C(C)C :: class 0
46. Cn1nnc2c1CCN(C(=O)C1CCC1)C2COCCN1CCCC1 (configuration not stated) :: class 1
47. CCn1c(C2CCN(C(=O)c3cc(Cl)no3)CC2)nn(C)c1=O :: class 1
